Assay Target: GMPPNP-loaded KRAS G12C (Homo sapiens, UniProt P01116, G12C)
Sequence (P01116 1-188 isoform P01116-2 G12C): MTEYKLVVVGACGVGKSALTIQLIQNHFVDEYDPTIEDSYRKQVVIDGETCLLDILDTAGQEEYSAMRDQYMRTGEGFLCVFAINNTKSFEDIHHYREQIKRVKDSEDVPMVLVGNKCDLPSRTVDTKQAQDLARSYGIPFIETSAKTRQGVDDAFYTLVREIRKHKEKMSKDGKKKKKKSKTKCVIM
Method Notes: KRAS G12C RAF Disruption Assay (HTRF)
Experimental Setup: recombinant GMPPNP-loaded KRAS G12C (5 nM), 20 min with compound; GST-RAF1 RBD (9 nM); HTRF signal; read-out: KRASG12C RAF Disruption Assay (IC50)
Known IC50 of a selection of compounds
# number only, unit nM dropped from output

See these solved cases before continuing.
- Compound: "C#Cc1cccc2cccc(-c3ncc4c(N(C)C5CCN(C(=O)/C(F)=C/c6ccccn6)C5C)nc(OC[C@@]56CCCN5C[C@H](F)C6)nc4c3F)c12 (single isomer, unassigned) [Example 74 cis isomer 1]"
  IC50 (nM): 1000
- Compound: "C#Cc1c(F)ccc2cc(O)cc(-c3ncc4c(N5C[C@H]6CC[C@@H](C5)N6C(=O)/C(F)=C/c5ccc(Br)cn5)nc(OC[C@@]56CCCN5C[C@H](F)C6)nc4c3F)c12 [Compound 9]"
  IC50 (nM): 350

Consider the additional compound presented here.
Ask: Provide IC50 value for the following compound: C#Cc1cccc2cccc(-c3ncc4c(N5CCC6(CCN6C(=O)/C(F)=C/c6ncccn6)C5)nc(OC[C@@]56CCCN5C[C@H](F)C6)nc4c3F)c12 (single isomer, unassigned) [Compound 105]
Result: 9700
